Test system: NCI-H522 lung
method: NCI-60 one-dose screen, 48 h (100 = growth as untreated, 0 = no growth, -100 = all killed)
setupConditions: 10 µM unless noted
Description: Growth inhibition of the NCI-H522 human Non-Small Cell Lung tumor cell line is measured as a screen for anti-cancer activity. Cells are grown in 96 well plates and exposed to the test compound for 48 hours. Compounds are tested at a single concentration, which is 10^-5 M for most compounds. The reported endpoint is percent growth (GI% or GIPRCNT), where numbers from 0 - 100% represent growth inhibition, and numbers from -100% - 0 represent cell death. […]
Compounds without any hit were thinned out: in the full panel of roughly 83,000, 20% have a hit.
Each entry below carries its reported growth.
Report as a plain number; the unit % is understood.

Solved cases below.
molecule | measuredNumber
O=C(NNC(=O)c1cccc(Cl)c1)c1ccccc1 | 111
c1cn2cc(-c3ccc4ncn(C5CCCCC5)c4c3)nc(-c3ccc4c(c3)ncn4C3CCCCC3)c2n1 | -52.6
CC(C)(C)[Si](C)(C)OC1[C@@H](O[Si](C)(C)C(C)(C)C)[C@@H](CNC(=O)NC(=O)NC(=O)CI)O[C@H]1n1cnc2c(NC(=O)Nc3ccccc3)ncnc21 (stereo partly specified) | -80.4
Fc1ccc(-c2cnc3nonc3n2)c(F)c1 | 84

What measured growth is associated with CC1CCCN(CCCCOc2ccc(-c3ccc(C#N)cc3)cc2)C1 (stereo unspecified) on NCI-H522 lung?
59.6

Lab note: need growth with NCI-H522 lung for entry "CCCCCCCCCCCCNC(=O)N[C@H](C(=O)N[C@H]1/C=C/OCCNC(=O)/C=C/[C@H](C(C)C)NC1=O)C(C)C" , please look it up.
47.6

Request: growth, test system NCI-H522 lung, entry "COc1ccc2nc(C)cc(Sc3nc4ccccc4s3)c2c1"
-20.9

What is its growth for NCI-H522 lung? Entry: COc1ccc(C(=O)OC2C(OC3C(O)COC(O[C@H]4C[C@H]5[C@@H]6CC=C7C[C@@H](O)CC[C@]7(C)[C@H]6CC[C@]5(C)[C@H]4[C@H](C)C(=O)CCC(C)C)C3OC(C)=O)OCC(O)C2O)cc1 (stereo partly specified)
-65.7

For NCI-H522 lung, provide growth of "Cc1cc([N+](=O)[O-])c(C)cc1N" please.
77.5

// lookup growth | system=NCI-H522 lung | key= COc1cc(C2CC(c3ccc(Cl)cc3)=NN2C(C)=O)ccc1Oc1nc2c(c(=O)n(C)c(=O)n2C)n1C (stereo unspecified)
92.5

Form entry - test system: NCI-H522 lung; read-out: growth; molecule: COc1ccc(C2c3cccn3-c3ccccc3N2C(C)=O)cc1 (stereo unspecified)
122
